# System: L1210 leukemia
# PROTOCOL: L1210 leukemia survival time in mice (ip implanted)
# Format: in vivo, mice (CD2F1)
# REPORTED_CONDITIONS: 10 mg/kg ip once daily × 6; cures not included
Some molecules, each annotated with its measured %T/C (average survival time treated/control × 100).
Form entry: value (%) — number only.

INSERT INTO results (molecule, target_under_test, recorded_number) VALUES
  ('CCOC(=O)CNC(=O)N(N(CCCl)S(C)(=O)=O)S(C)(=O)=O', 'L1210 leukemia', 202);

Enquiry: Quick one: %T/C (average survival time treated/control × 100) of `C=CCNC(=O)N(N(CCCl)S(C)(=O)=O)S(C)(=O)=O` ?
Return: 394

Enquiry: Quick one: %T/C (average survival time treated/control × 100) of CCOC(=O)C(Cc1ccccc1)NC(=O)N(N(CCCl)S(C)(=O)=O)S(C)(=O)=O (centres unmarked) ?
Return: 165

Enquiry: Quick one: %T/C (average survival time treated/control × 100) of `CS(=O)(=O)N(CCCl)N(C(=O)NCCCCl)S(C)(=O)=O` ?
Return: 187

Enquiry: Quick one: %T/C (average survival time treated/control × 100) of CCOC(=O)C(C)NC(=O)N(N(CCCl)S(C)(=O)=O)S(C)(=O)=O (centres unmarked) ?
Return: 178
